Cited source for all entries: ChEMBL document CHEMBL5108036

# System: Pseudomonas aeruginosa
# ASSAY_NOTES: Antibacterial activity against Pseudomonas aeruginosa ATCC 27853 incubated for 48 hrs and measured by broth microdilution assay
# Assay type: functional
MEASURED_PARAMETER: MIC (µg/mL)
Express it in µg/mL; write the number only.

{"INPUT_SMILES": "N=C(N)NCCCN1C(=O)N(CCCNC(=N)N)C(=O)C(Cc2cc(C(F)(F)F)cc(C(F)(F)F)c2)(Cc2cc(C(F)(F)F)cc(C(F)(F)F)c2)C1=O.O=C(O)C(F)(F)F.O=C(O)C(F)(F)F", "SYSTEM_NAME": "Pseudomonas aeruginosa", "MIC (µg/mL)": 16}
{"INPUT_SMILES": "N=C(N)NCCCCCN1C(=O)N(CCCCCNC(=N)N)C(=O)C(Cc2cc(Br)cc(Br)c2)(Cc2cc(Br)cc(Br)c2)C1=O.O=C(O)C(F)(F)F.O=C(O)C(F)(F)F", "SYSTEM_NAME": "Pseudomonas aeruginosa", "MIC (µg/mL)": 8}
{"INPUT_SMILES": "NCCCCCCN1C(=O)N(CCCCCCN)C(=O)C(Cc2cc(Br)cc(Br)c2)(Cc2cc(Br)cc(Br)c2)C1=O.O=C(O)C(F)(F)F.O=C(O)C(F)(F)F", "SYSTEM_NAME": "Pseudomonas aeruginosa", "MIC (µg/mL)": 16}
{"INPUT_SMILES": "N=C(N)NCCCN1C(=O)N(CCCNC(=N)N)C(=O)C(Cc2ccc(Br)c(Cl)c2)(Cc2ccc(Br)c(Cl)c2)C1=O.O=C(O)C(F)(F)F.O=C(O)C(F)(F)F", "SYSTEM_NAME": "Pseudomonas aeruginosa", "MIC (µg/mL)": 32}
{"INPUT_SMILES": "NCCCCCN1C(=O)N(CCCCCN)C(=O)C(Cc2cc(Br)cc(Br)c2)(Cc2cc(Br)cc(Br)c2)C1=O.O=C(O)C(F)(F)F.O=C(O)C(F)(F)F", "SYSTEM_NAME": "Pseudomonas aeruginosa", "MIC (µg/mL)": 8}

Turning now to a further molecule:
Report MIC under test system Pseudomonas aeruginosa for C[N+](C)(C)CCCCN1C(=O)N(CCCC[N+](C)(C)C)C(=O)C(Cc2cc(Br)cc(Br)c2)(Cc2cc(Br)cc(Br)c2)C1=O.O=C([O-])C(F)(F)F.O=C([O-])C(F)(F)F .
256
